Test system: HIV with mutations in the HIV protease sequence
Assay: Phenotypic fold resistance to protease inhibitors, protease mutations 84A/84L/84C/54M/54L/54V in a background (Examples 8-13)
Type: cell-based, HIV-1
Settings: Table 12, V048878, genotype 10I + 33F + 54M + 71V + 77I + 90M
From the text: As is the case with the genotyping assays, the recombinant virus assay starts with the amplification of viral target sequences by means of PCR. The amplicons are incorporated into a proviral laboratory clone with sequences homologous to those present in the amplicon deleted. This generates a stock of chimeric viruses. […] In the latter case, resistance is expressed as “fold-resistance” compared to a wild-type susceptible HIV-1 strain. […]
Please use Condition met whenever Fold change in IC50 is not below 7 fold, and Condition not met whenever it is.

query: Given CC(C)CN(C[C@@H](O)[C@H](Cc1ccccc1)NC(=O)O[C@H]1CCOC1)S(=O)(=O)c1ccc(N)cc1 [Amprenavir, amprenavir] , state whether its Fold change in IC50 is at least 7 fold.
result: Condition met

query: Given Cc1c(O)cccc1C(=O)N[C@@H](CSc1ccccc1)[C@H](O)CN1C[C@H]2CCCC[C@H]2C[C@H]1C(=O)NC(C)(C)C [Nelfinavir, nelfinavir] , state whether its Fold change in IC50 is at least 7 fold.
result: Condition met

query: Given CC(C)c1nc(CN(C)C(=O)N[C@H](C(=O)N[C@@H](Cc2ccccc2)C[C@H](O)[C@H](Cc2ccccc2)NC(=O)OCc2cncs2)C(C)C)cs1 [Ritonavir, ritonavir] , state whether its Fold change in IC50 is at least 7 fold.
result: Condition met

query: Given CC(C)(C)NC(=O)[C@@H]1C[C@@H]2CCCC[C@@H]2CN1C[C@@H](O)[C@H](Cc1ccccc1)NC(=O)[C@H](CC(N)=O)NC(=O)c1ccc2ccccc2n1 [Saquinavir, saquinavir] , state whether its Fold change in IC50 is at least 7 fold.
result: Condition not met

query: Given CC(C)(C)NC(=O)[C@@H]1CN(Cc2cccnc2)CCN1C[C@@H](O)C[C@@H](Cc1ccccc1)C(=O)N[C@H]1c2ccccc2C[C@H]1O [Indinavir, indinavir] , state whether its Fold change in IC50 is at least 7 fold.
result: Condition not met

====

system: HIV with mutations in the HIV protease sequence; assay: Phenotypic fold resistance to protease inhibitors, protease mutations 84A/84L/84C/54M/54L/54V in a background (Examples 8-13); assay type: cell-based, HIV-1; settings: Virco ID V052942; genotype 10I + 71V; vs mean IC50 of wild type laboratory HIV strain
readout_kind: Fold change in IC50 (fold)
Report the value in fold with no unit label.

Field Fold change in IC50 (system: HIV with mutations in the HIV protease sequence) for entry CC(C)c1nc(CN(C)C(=O)N[C@H](C(=O)N[C@@H](Cc2ccccc2)C[C@H](O)[C@H](Cc2ccccc2)NC(=O)OCc2cncs2)C(C)C)cs1 [Ritonavir, ritonavir] = 0.6

Field Fold change in IC50 (system: HIV with mutations in the HIV protease sequence) for entry CC(C)(C)NC(=O)[C@@H]1C[C@@H]2CCCC[C@@H]2CN1C[C@@H](O)[C@H](Cc1ccccc1)NC(=O)[C@H](CC(N)=O)NC(=O)c1ccc2ccccc2n1 [Saquinavir, saquinavir] = 0.8

Field Fold change in IC50 (system: HIV with mutations in the HIV protease sequence) for entry CC(C)(C)NC(=O)[C@@H]1CN(Cc2cccnc2)CCN1C[C@@H](O)C[C@@H](Cc1ccccc1)C(=O)N[C@H]1c2ccccc2C[C@H]1O [Indinavir, indinavir] = 0.6

Field Fold change in IC50 (system: HIV with mutations in the HIV protease sequence) for entry Cc1c(O)cccc1C(=O)N[C@@H](CSc1ccccc1)[C@H](O)CN1C[C@H]2CCCC[C@H]2C[C@H]1C(=O)NC(C)(C)C [Nelfinavir, nelfinavir] = 0.9

Field Fold change in IC50 (system: HIV with mutations in the HIV protease sequence) for entry CC(C)CN(C[C@@H](O)[C@H](Cc1ccccc1)NC(=O)O[C@H]1CCOC1)S(=O)(=O)c1ccc(N)cc1 [Amprenavir, amprenavir] = 0.5

Data credit: patent US8574831B2
